system: Cabbage Looper [Trichoplusia ni (Hubner)]; test: Cabbage looper insecticidal test; type: in vivo; conditions: second-instar larvae, percent in solution; 3-5 days
Please assign n whenever LC50, CL is at or above 0.0008%, and y whenever it is below.

## Task Please determine if `CC(C)C(=Nc1ccc2c(c1)OCO2)OCc1cc(Oc2ccc(F)cc2)ccn1` is below 0.0008% in terms of LC50, CL.
## Result n

## Task Please determine if `CCOc1ccc(N=C(OCc2ccc(F)c(Oc3ccccc3)c2)C(C)C)cc1Cl` is below 0.0008% in terms of LC50, CL.
## Result y

## Task Please determine if `CC(C)C(=Nc1cc(F)c(Cl)cc1Cl)OCc1ccc(F)c(Oc2ccc(F)cc2)c1` is below 0.0008% in terms of LC50, CL.
## Result y

## Task Please determine if `CC(C)C(=Nc1ccc(Cl)c(C(F)(F)F)c1)OCc1cccc(Oc2ccc(F)cc2)c1` is below 0.0008% in terms of LC50, CL.
## Result y

## Task Please determine if `Cc1ccc(Oc2cccc(COC(=Nc3ccc(F)c(Cl)c3)C(C)C)c2)cc1` is below 0.0008% in terms of LC50, CL.
## Result n

## Task Please determine if `Cc1cc(N=C(OCc2ccc(F)c(Oc3ccc(Cl)cc3)c2)C(C)C)ccc1F` is below 0.0008% in terms of LC50, CL.
## Result n

## Task Please determine if `CCc1cccc(N=C(OCc2cccc(Oc3ccccc3)c2)C(C)(C)C)c1` is below 0.0008% in terms of LC50, CL.
## Result n

## Task Please determine if `CC(C)C(=Nc1ccc(F)c(I)c1)OCc1ccc(F)c(Oc2ccc(F)cc2)c1` is below 0.0008% in terms of LC50, CL.
## Result y

## Task Please determine if `COc1ccc(Oc2cccc(COC(=Nc3ccc(C(C)(C)C)cc3)C(C)C)c2)cc1` is below 0.0008% in terms of LC50, CL.
## Result n

## Task Please determine if `CCOC(=O)c1ccc(N=C(OCc2cccc(Oc3ccccc3)c2)C(C)C)cc1Cl` is below 0.0008% in terms of LC50, CL.
## Result n

## Task Please determine if `COc1ccc(N=C(OCc2ccc(F)c(Oc3ccc(F)cc3)c2)C(C)C)cc1Cl` is below 0.0008% in terms of LC50, CL.
## Result n

## Task Please determine if `CC(C)C(=Nc1ccc(C#N)cc1)OCc1cccc(Oc2ccc(F)cc2)c1` is below 0.0008% in terms of LC50, CL.
## Result n

## Task Please determine if `Cc1ccc(N=C(OCc2cccc(Oc3ccc(Cl)cc3)c2)C(C)C)cc1Cl` is below 0.0008% in terms of LC50, CL.
## Result n

## Task Please determine if `CCCC(=Nc1ccc(Cl)c(Cl)c1)OCc1cccc(Oc2ccccc2)c1` is below 0.0008% in terms of LC50, CL.
## Result n

----------
system: Cabbage Looper [Trichoplusia ni (Hubner)]; assay: Cabbage looper insecticidal test; assay type: in vivo; conditions: second-instar larvae, percent in solution; 3-5 days
PARAMETER: LC50, CL (%)
Entry rule: numbers only, all in %.

## Task What does the record list as LC50, CL for COc1ccc(Cl)cc1N=C(OCc1cccc(Oc2ccccc2)c1)C(C)C [Compound 264] ?
## Result 0.03

## Task What does the record list as LC50, CL for CC(C)C(=Nc1ccc(F)c(Cl)c1)OCc1ccc(OCc2ccccc2)cc1 [Compound 475] ?
## Result 0.008

## Task What does the record list as LC50, CL for CC(C)C(=Nc1ccc(F)cc1)OCc1ccc(F)c(Oc2ccccc2)c1 [Compound 53] ?
## Result 0.0005

## Task What does the record list as LC50, CL for CC(C)C(=Nc1ccc(OCC(F)(F)F)c(Cl)c1)OCc1cccc(Oc2ccc(Cl)cc2)c1 [Compound 421] ?
## Result 0.002

## Task What does the record list as LC50, CL for CC(C)C(=Nc1cccc(C(F)(F)F)c1)OCc1cc(Oc2ccccc2)ccn1 [Compound 506] ?
## Result 0.005

## Task What does the record list as LC50, CL for CC(C)C(=Nc1cccc(C(F)(F)F)c1)OCc1cccc(Oc2ccc(Br)cc2)n1 [Compound 493] ?
## Result 0.0008

## Task What does the record list as LC50, CL for CC(C)C(=Nc1ccc(C(C)C)cc1)OCc1cccc(Oc2ccccc2)c1 [Compound 144] ?
## Result 0.002

## Task What does the record list as LC50, CL for CC(C)C(=Nc1ccc(F)c(Cl)c1)OCc1cccc(Oc2ccc(Cl)cn2)c1 [Compound 527] ?
## Result 0.00065

## Task What does the record list as LC50, CL for COc1ccc(N=C(OCc2ccc(F)c(Oc3ccccc3)c2)C(C)C)cc1F [Compound 435] ?
## Result 0.002

## Task What does the record list as LC50, CL for CC(C)C(=Nc1ccccc1C(F)(F)F)OCc1cccc(Oc2ccccc2)c1 [Compound 72] ?
## Result 0.08

## Task What does the record list as LC50, CL for CCc1ccc(N=C(OCc2ccc(F)c(Oc3ccccc3)c2)C(C)C)cc1 [Compound 360] ?
## Result 0.006

## Task What does the record list as LC50, CL for CC(C)C(=Nc1ccc(Cl)cc1)OCc1cccc(Oc2ccccc2)c1 [Compound 2] ?
## Result 0.006

## Task What does the record list as LC50, CL for CC(C)C(=Nc1cccc(C(F)(F)F)c1)OCc1cccc(Nc2ccc(F)cc2)c1 [Compound 513] ?
## Result 0.007

## Task What does the record list as LC50, CL for CC(C)C(=Nc1ccc(F)c(Cl)c1)OCc1cc(Oc2ccc(Cl)cc2)ccn1 [Compound 516] ?
## Result 0.008

## Task What does the record list as LC50, CL for CC(C)C(=Nc1cccc(Br)c1)OCc1cccc(Oc2ccccc2)c1 [Compound 128] ?
## Result 0.005

## Task What does the record list as LC50, CL for Cc1cc(Cl)ccc1N=C(OCc1cccc(Oc2ccccc2)c1)C(C)C [Compound 96] ?
## Result 0.003

Just for reference, patent US5070210A is where these values come from.
